# System: Septoria tritici
# assay: B-9. Septoria tritici in vitro cell test
# Type: cell-based
# condition_parameters: Zymoseptoria tritici, 168 h; 20 ppm of active ingredient; 7 days incubation; liquid culture, absorbance; read-out: efficacy (inhibition of fungal growth)
value_kind: inhibition at 20 ppm

Completed entries (count: 3):
compound	assay_system	inhibition at 20 ppm
Cc1ccc(C(F)(F)CNC(=O)c2c(Oc3cccc(Br)c3)cnc3nccnc23)c(C)c1 [I-241]	Septoria tritici	90 to 100%
Cc1ccc(C(F)(F)CNC(=O)c2c(Oc3cccc(C(F)(F)F)c3)nnc3c2CCC3)c(Cl)c1 [I-142]	Septoria tritici	90 to 100%
Cc1cc(Br)ccc1C(F)(F)CNC(=O)c1c(Oc2cccc(C(F)F)c2)nnc2c1CCCC2 [I-150]	Septoria tritici	90 to 100%

Answer for every listed entry: what is its inhibition at 20 ppm? The entries follow.
1. O=C(NCC(F)(F)c1ccc(Cl)cc1Cl)c1c(Oc2cccc(C(F)(F)F)c2)nnc2c1COCC2 [I-228]
2. O=C(NCC(F)(F)c1ccc(Br)cc1Cl)c1c(Oc2cccc(Cl)c2)nnc2c1CCCC2 [I-209]
3. O=C(NCC(F)(F)c1ccc(Br)cc1Cl)c1c(Oc2cccc(C(F)(F)F)c2)nnc2c1CCCC2 [I-207]
4. O=C(NCC(F)(F)c1ccc(Cl)cc1Cl)c1c(Oc2cccc(Cl)c2)nnc2c1CCCC2 [I-192]
5. O=C(NCC(F)c1ccc(Cl)cc1Cl)c1c(Oc2cccc(C(F)F)c2)nnc2c1CCCC2 (stereo not shown) [I-177]
6. O=C(NC[C@H](F)c1ccc(Cl)cc1Cl)c1c(Oc2cccc(C3CC3)c2F)nnc2ccccc12 (racemic) [I-072]
7. Cc1ccc(C(F)CNC(=O)c2c(Oc3cccc(C(F)(F)F)c3)nnc3c2COCC3)c(C)c1 (stereo not shown) [I-123]
8. O=C(NCCc1ccc2c(c1)CCO2)c1c(Oc2cccc(C(F)(F)F)c2)nnc2ccccc12 [I-081]

Key:
["90 to 100%", "80 to 89%", "90 to 100%", "90 to 100%", "90 to 100%", "90 to 100%", "90 to 100%", "70 to 79%"]

Answer for every listed entry: what is its inhibition at 20 ppm? The entries follow.
1. O=C(NCC(F)(F)c1ccc(Cl)cc1Cl)c1c(Oc2cccc(Cl)c2F)nnc2c1CCC2 [I-201]
2. Cc1ccc(C(F)CNC(=O)c2c(Oc3cccc(Cl)c3F)nnc3c2CCCC3)c(C)c1 (stereo not shown) [I-136]
3. O=C(NCC(F)(F)c1ccc(Cl)cc1Cl)c1c(Oc2cccc(C(F)(F)F)c2)nnc2c1CCC2 [I-198]
4. Cc1cc(Cl)ccc1C(F)(F)CNC(=O)c1c(Oc2cccc(C3CC3)c2F)nnc2c1CCCC2 [I-147]
5. Cc1cc(Cl)ccc1C(F)(F)CNC(=O)c1c(Oc2cccc(C(F)(F)F)c2)nnc2c1COCC2 [I-125]

Key:
1: 90 to 100%; 2: 90 to 100%; 3: 90 to 100%; 4: 90 to 100%; 5: 90 to 100%

Answer for every listed entry: what is its inhibition at 20 ppm? The entries follow.
1. Cc1cc(Cl)ccc1C(F)(F)CNC(=O)c1c(Oc2cccc(Cl)c2)nnc2c1CCCC2 [I-146]
2. Cc1ccc(C(F)(F)CNC(=O)c2c(Oc3cccc(Br)c3F)nnc3ccccc23)c(C)c1 [I-227]
3. COc1cc([C@@H](F)CNC(=O)c2c(Oc3cccc(C(F)(F)F)c3)nnc3ccccc23)ccc1Cl (racemic) [I-176]
4. Cc1cc(Cl)ccc1C(F)(F)CNC(=O)c1c(Oc2cccc(C(F)F)c2)nnc2c1CCCC2 [I-163]
5. O=C(NCC(F)c1ccc(Cl)cc1Cl)c1c(Oc2cccc(C(F)(F)F)c2)nnc2c1COCC2 (stereo not shown) [I-126]
6. O=C(NCC(F)(F)c1ccc(Cl)cc1Cl)c1c(Oc2cccc(Cl)c2F)nnc2c1CCCC2 [I-194]

Key:
90 to 100%
70 to 79%
80 to 89%
90 to 100%
90 to 100%
90 to 100%

Answer for every listed entry: what is its inhibition at 20 ppm? The entries follow.
1. Cc1cc(Cl)ccc1C(F)(F)CNC(=O)c1c(Oc2cccc(C(F)(F)F)c2)nnc2c1CCC2 [I-164]
2. Cc1cc(Br)ccc1C(F)(F)CNC(=O)c1c(Oc2cccc(C3CC3)c2F)nnc2c1CCCC2 [I-153]
3. Cc1ccc(C(F)(F)CNC(=O)c2c(Oc3cccc(C4CC4)c3F)nnc3c2CCC3)c(Cl)c1 [I-144]

Key:
90 to 100%
90 to 100%
80 to 89%
